Hey, just so you know, these numbers are from ChEMBL document CHEMBL6092146.

Catalogue of pIC50 readings, one per entry.
Test system: MCF7
Test: Antiproliferative activity against human MCF7 cells assessed as reduction in cell viability incubated for 48 hrs by CCK-8 assay
Assay type: functional, cell-based
Conditions: MCF7, 48 h
Note on units: pIC50 is unitless, being -log10 of a concentration expressed in mol/L.

CC(C)c1ccc(COc2cccc3c2C(=O)c2c(OCc4ccc(C(C)C)cc4)cc(C(=O)N[C@H](C(=O)O)C(C)C)cc2C3=O)cc1    4.86

The reported pIC50 value, MCF7, for `CC(C)[C@H](NC(=O)c1cc(OCc2ccccc2)c2c(c1)C(=O)c1cccc(OCc3ccccc3)c1C2=O)C(=O)O` reads 4.44

The reported pIC50 value, MCF7, for `CC(C)[C@H](NC(=O)c1cc(OCCCc2ccccc2)c2c(c1)C(=O)c1cccc(OCCCc3ccccc3)c1C2=O)C(=O)O` reads 5.35

The reported pIC50 value, MCF7, for `CC(C)[C@H](NC(=O)c1cc(OCc2cccc(F)c2)c2c(c1)C(=O)c1cccc(OCc3cccc(F)c3)c1C2=O)C(=O)O` reads 4.41
